# Tgt: C-C chemokine receptor type 4 (Mus musculus) (UniProt P51680)
# Sequence (whole entry): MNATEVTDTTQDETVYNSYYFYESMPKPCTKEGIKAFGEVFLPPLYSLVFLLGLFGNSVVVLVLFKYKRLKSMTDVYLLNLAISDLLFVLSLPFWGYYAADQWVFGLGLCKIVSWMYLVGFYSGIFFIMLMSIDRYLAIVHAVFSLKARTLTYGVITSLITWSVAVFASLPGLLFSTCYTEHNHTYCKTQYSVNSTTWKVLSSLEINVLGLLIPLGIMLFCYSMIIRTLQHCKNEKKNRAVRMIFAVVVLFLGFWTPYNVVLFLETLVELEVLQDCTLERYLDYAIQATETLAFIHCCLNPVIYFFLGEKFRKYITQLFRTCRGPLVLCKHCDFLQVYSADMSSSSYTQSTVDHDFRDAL
# Experimental protocol: Antagonist activity at mouse CCR4 receptor expressed in mouse B300-19 cells assessed as CCL22-induced chemotaxis by bioluminescent assay
# Type: functional, cell-based
Measured parameter: Activity (µM)

Answered cases to consult:
Smiles notation: COc1ccc2nc(N3CCC(N4CCCC4)CC3)nc(NC3CCCCCC3)c2c1
Activity / µM: 0.8
--
Smiles notation: COc1cc2nc(N3CCC(N(C)C4CCCC4)CC3)nc(NC3CCCCCC3)c2cc1OC
Activity / µM: 0.35
--
Smiles notation: COc1cc2nc(N3CCC(N4CCC(F)CC4)CC3)nc(NC3CCCCCC3)c2cc1OC
Activity / µM: 0.6
--
Smiles notation: COc1ccc2c(NC3CCCCCC3)nc(N3CCC(N4CCCC4)CC3)nc2c1
Activity / µM: 0.22
--
Smiles notation: COc1cc2nc(N3CCN(C4CCCCC4)CC3)nc(NC3CCCCCC3)c2cc1OC
Activity / µM: 0.21

(A) COc1cc2nc(N3CCC(N4CCCCC4)CC3)nc(NC3CCCCCC3)c2cc1OC
(B) COc1cc2nc(N3CCC(N4CCCC4)CC3)nc(NC3CCCCCC3)c2cc1OC
Param pair: A , B . Output: the one whose Activity is numerically greater. Provide the label of your selected option as the answer.
B

###

# Tgt: C-C chemokine receptor type 4 (Homo sapiens) (UniProt P51679)
# Sequence (P51679 whole entry): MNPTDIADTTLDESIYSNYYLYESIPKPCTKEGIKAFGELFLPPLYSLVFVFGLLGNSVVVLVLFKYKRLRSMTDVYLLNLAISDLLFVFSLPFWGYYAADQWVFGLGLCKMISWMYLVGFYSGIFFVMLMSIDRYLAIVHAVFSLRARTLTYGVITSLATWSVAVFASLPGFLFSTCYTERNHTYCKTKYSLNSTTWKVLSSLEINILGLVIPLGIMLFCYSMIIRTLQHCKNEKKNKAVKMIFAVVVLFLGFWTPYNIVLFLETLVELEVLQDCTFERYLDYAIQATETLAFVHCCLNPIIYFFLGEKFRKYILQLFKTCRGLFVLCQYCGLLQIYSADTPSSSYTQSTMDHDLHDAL
# Experimental protocol: Antagonist activity at human CCR4 receptor expressed in mouse B300-19 cells at 1 uM by [35S]GTPgammaS binding assay
# Format: functional, cell-based
Measured parameter: inhibition (%)

// below: answered compounds
Compound: COc1cc2nc(NCCc3ccccc3)nc(NC3CCCCCC3)c2cc1OC
inhibition / %: 16

Compound: COc1cc2nc(NCCCN3CCCC3=O)nc(NC3CCCCCC3)c2cc1OC
inhibition / %: 8

Compound: CCOC(=O)N1CCC(Nc2nc(N3CCC(N4CCCC4)CC3)nc3cc(OC)c(OC)cc23)CC1
inhibition / %: 10

Compound: COc1cc2nc(N3CCC(N4CCCC4)CC3)nc(N3CCCCC3)c2cc1OC
inhibition / %: 8

Compound: CCNc1nc(N2CCC(N3CCCC3)CC2)nc2cc(OC)c(OC)cc12
inhibition / %: 3

(a) COc1cc2nc(N3CCCCC3)nc(NC3CCCCCC3)c2cc1OC
(b) COc1cc2nc(N3CCN(C4CCCCC4)CC3)nc(NC3CCCCCC3)c2cc1OC
For this pair, a and b , which shows a numerically higher inhibition? Select an item and report its label.
b
(b: 10%, a: 7%)

(A) COc1cc2nc(N3CCC(N4CCC(F)CC4)CC3)nc(NC3CCCCCC3)c2cc1OC
(B) COc1cc2nc(N3CCC(N4CCCC4)CC3)nc(NC3CCCCCC3)c2cc1OC
(C) COc1cc2nc(N3CCN(c4ccccc4)CC3)nc(NC3CCCCCC3)c2cc1OC
(D) COc1cc2nc(NCc3cccs3)nc(NC3CCCCCC3)c2cc1OC
Place the items in sequence of falling inhibition. // format: requested-order list of labels
B, A, C, D
(B: 93%, A: 10%, C: 7%, D: 0%)

(I) COc1cc2nc(N3CCN(C)CC3)nc(NC3CCCCCC3)c2cc1OC
(II) COc1cc2nc(N3CCC(N4CCCC4)CC3)nc(NCCc3ccccc3)c2cc1OC
Lab note: record which item had the higher inhibition, I or II . State the label of the item chosen.
I

(A) COc1ccc2nc(N3CCC(N4CCCC4)CC3)nc(NC3CCCCCC3)c2c1
(B) COc1cc2nc(N3CCC(N4CCCCC4)CC3)nc(NC3CCCCCC3)c2cc1OC
(C) COc1cc2nc(NCCCN3CCCC3)nc(NC3CCCCCC3)c2cc1OC
Task field, ranking: reported inhibition, descending order. Please write the labels in the order that was asked for.
B, C, A
(B: 92%, C: 35%, A: 10%)
